test system: purified heterologously expressed creatinine deiminase from Tissierella creatinini; test: Interference studies: compound added to the reaction mixture, creatinine deiminase activity determined (coupled optical test); type: biochemical; conditions: compound added to standard reaction mixture; creatinine deiminase activity
Returns: string. Value is yes (1) if measured Maximum concentration without interference is below 600 mg/L, and no (0) if it is greater than or equal to it.

compound | target_system | qualitative_label
CC(C)=O | purified heterologously expressed creatinine deiminase from Tissierella creatinini | no (0)
NS(=O)(=O)c1cc(C(=O)O)c(NCc2ccco2)cc1Cl [Fuoresemide] | purified heterologously expressed creatinine deiminase from Tissierella creatinini | no (0)
NC[C@H](O)c1ccc(O)c(O)c1 [Norepinephrine] | purified heterologously expressed creatinine deiminase from Tissierella creatinini | yes (1)
O=C(O)c1cc(/N=N/c2ccc(S(=O)(=O)Nc3ccccn3)cc2)ccc1O | purified heterologously expressed creatinine deiminase from Tissierella creatinini | yes (1)
Cc1cc(NS(=O)(=O)c2ccc(N)cc2)no1 | purified heterologously expressed creatinine deiminase from Tissierella creatinini | yes (1)
C[C@H](CS)C(=O)N1CCC[C@H]1C(=O)O | purified heterologously expressed creatinine deiminase from Tissierella creatinini | yes (1)
CC(=O)CC(=O)O [Acetoacetate] | purified heterologously expressed creatinine deiminase from Tissierella creatinini | yes (1)

====

test system: purified heterologously expressed creatinine deiminase from Tissierella creatinini; experiment: Interference studies: compound added to the reaction mixture, creatinine deiminase activity determined (coupled optical test); assay type: biochemical; conditions: compound added to standard reaction mixture; creatinine deiminase activity
The following compounds are listed with their measured Maximum concentration without interference values.
measurement_label: Maximum concentration without interference (mg/L)

compound | uom | endpoint_result
COc1cc(Cc2cnc(N)nc2N)cc(OC)c1OC | mg/L | 46
CN[C@H](CC(C)C)C(=O)N[C@H]1C(=O)N[C@@H](CC(N)=O)C(=O)N[C@H]2C(=O)N[C@H]3C(=O)N[C@H](C(=O)N[C@H](C(=O)O)c4cc(O)cc(O)c4-c4cc3ccc4O)[C@H](O)c3ccc(c(Cl)c3)Oc3cc2cc(c3O[C@@H]2O[C@H](CO)[C@@H](O)[C@H](O)[C@H]2O[C@H]2C[C@](C)(N)[C@H](O)[C@H](C)O2)Oc2ccc(cc2Cl)[C@H]1O | mg/L | 288
CNC[C@H](O)c1ccc(O)c(O)c1 [Epinephrine] | mg/L | 0.05
O=C(O)C(=O)O | mg/L | 400
Nc1cc[nH]c(=O)n1 | mg/L | 2000
Nc1nc(=O)[nH]cc1F | mg/L | 1000
N[C@@H](Cc1c[nH]cn1)C(=O)O | mg/L | 2250
C[C@](N)(Cc1ccc(O)c(O)c1)C(=O)O | mg/L | 107
CC(=O)O | mg/L | 200
CN(CC(=O)O)C(=N)N | mg/L | 2000

Measured values drawn from patent US7205140B2 for this set.
